For each of the molecules below, state its IC50.
- Subject of test: Photoreceptor-specific nuclear receptor (Homo sapiens)
- Sequence (Q9Y5X4 whole entry): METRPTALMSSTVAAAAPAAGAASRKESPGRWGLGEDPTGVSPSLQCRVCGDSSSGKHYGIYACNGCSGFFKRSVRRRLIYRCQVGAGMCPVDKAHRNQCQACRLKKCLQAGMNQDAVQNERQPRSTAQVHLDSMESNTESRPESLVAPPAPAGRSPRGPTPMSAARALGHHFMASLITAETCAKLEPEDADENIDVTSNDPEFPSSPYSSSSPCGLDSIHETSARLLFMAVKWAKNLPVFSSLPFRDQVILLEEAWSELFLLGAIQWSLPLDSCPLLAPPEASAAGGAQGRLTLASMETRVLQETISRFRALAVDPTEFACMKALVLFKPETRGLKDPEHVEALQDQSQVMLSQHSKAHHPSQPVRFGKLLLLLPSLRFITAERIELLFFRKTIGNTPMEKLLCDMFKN
- Format: functional, cell-based
Active and inactive are the calls of the source.

Input line: Would you mind telling me what IC50 value was observed for Cc1c(C(=O)Nc2ccc(Oc3ccccc3)cc2)sc2nc3n(c(=O)c12)CCC3 ?
Output line: 2.78 µM (active)

Input line: Next record, please: COc1ccc(OC)c(NC(=O)CSc2nnnn2-c2ccc3c(c2)OCO3)c1
Output line: 0.24 µM (active)

Input line: Next record, please: CCC(Sc1nc(C)cc(=O)[nH]1)C(=O)Nc1sc2c(c1C#N)CCCC2 (centres undefined)
Output line: 5.4 µM (active)

Input line: Next record, please: N#C/C(=C\c1ccc(Sc2nc3ccccc3[nH]2)o1)c1ccccc1
Output line: 4.69 µM (active)
